molecular target: human recombinant BACE1 (Homo sapiens (Human)); assay: In vitro enzymatic BACE1 FRET assay; assay type: biochemical; conditions: read-out: IC50 IP (μM) BACE1 enzyme
OBSERVED_PROPERTY: IC50 (µM)

# example entries with known answers
{"SMILES_STRUCTURE": "C#CCOc1cnc2c(Nc3ccc(F)c([C@@]4(CF)N=C(N)S[C@@]5(c6cnco6)C[C@@H]45)c3)ncnc2c1", "UNIT_ANNOTATION": "µM", "IC50": 0.000577}
{"SMILES_STRUCTURE": "C#CCCOc1cnc(C(=O)Nc2cc(F)c(F)c([C@@]3(C)N=C(N)S[C@@]4(COC)C[C@H]43)c2)cn1", "UNIT_ANNOTATION": "µM", "IC50": 0.0074}
{"SMILES_STRUCTURE": "COC[C@]12C[C@H]1[C@@](C)(c1cc(NC(=O)c3cnc(OCc4nc(C)no4)cn3)cc(F)c1F)N=C(N)S2", "UNIT_ANNOTATION": "µM", "IC50": 0.000879}
{"SMILES_STRUCTURE": "CC1(NC(=O)[C@]23C[C@H]2[C@@](C)(c2cc(NC(=O)c4cnc(OCC(F)(F)F)cn4)ccc2F)N=C(N)S3)CC1", "UNIT_ANNOTATION": "µM", "IC50": 0.00176}

a = Cc1nc(COc2cnc3c(Nc4cc(F)c(F)c([C@@]5(C)N=C(N)S[C@@]6(C(F)F)C[C@@H]56)c4)nccc3n2)co1
b = [2H]C([2H])([2H])C#CC([2H])([2H])Oc1cnc2c(Nc3cnc(F)c([C@@]4(C)N=C(N)S[C@@]5(CF)C[C@H]54)c3)nccc2n1
Input pair: a , b . Output: entry with lower IC50. Give the chosen item's label as your response.
b
(b: 0.000555 µM, a: 0.00156 µM)

----------
biological target: Recombinant Cat D (Homo sapiens (Human)); assay: In vitro enzymatic Cathepsin D (Cat D) FRET assay; format: biochemical; settings: read-out: IC50 IP (μM) CatD
OBSERVED_PROPERTY: IC50 (µM)

{"SMILES_STRUCTURE": "C#C[C@H](C)Oc1cnc(C(=O)Nc2cc(F)c(F)c([C@@]3(C)N=C(N)S[C@@]4(COC)C[C@H]43)c2)c(C)c1", "IC50 [µM]": 777}

1 = NC1=N[C@](CF)(c2cc(NC(=O)c3ccc(Cl)cn3)ccc2F)[C@@H]2C[C@]2(/C=C/C(=O)O)S1
2 = C#CCOc1cnc2c(Nc3cnc(F)c([C@@]4(C)N=C(N)S[C@@]5(CO)C[C@H]54)c3)nccc2n1
Record comparison, field IC50: mark the lower of 1 and 2 . Identify your selection by its label.
1
(1: 458 µM, 2: 1060 µM)

----------
target: human recombinant BACE1 (Homo sapiens (Human), UniProt P56817); assay: In vitro enzymatic BACE1 FRET assay; type: biochemical; conditions: BACE1 FRET enzyme assay; read-out: IC50 IP (μM) BACE1 enzyme
Sequence (P56817 46-501): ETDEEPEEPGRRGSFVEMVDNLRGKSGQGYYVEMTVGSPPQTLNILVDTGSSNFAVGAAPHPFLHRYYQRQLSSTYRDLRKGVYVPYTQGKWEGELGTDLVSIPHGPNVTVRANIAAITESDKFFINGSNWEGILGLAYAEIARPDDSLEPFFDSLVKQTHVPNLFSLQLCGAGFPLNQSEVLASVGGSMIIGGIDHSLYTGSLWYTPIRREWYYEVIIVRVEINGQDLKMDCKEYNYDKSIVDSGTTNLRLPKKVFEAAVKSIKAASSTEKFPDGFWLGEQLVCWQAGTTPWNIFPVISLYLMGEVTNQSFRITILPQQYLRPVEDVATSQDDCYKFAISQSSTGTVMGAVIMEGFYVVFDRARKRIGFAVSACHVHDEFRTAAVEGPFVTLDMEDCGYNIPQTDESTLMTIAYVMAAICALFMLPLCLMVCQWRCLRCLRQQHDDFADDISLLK
OBSERVED_PROPERTY: IC50 (µM)

{"SMILES_STRUCTURE": "N#Cc1cnc2c(Nc3cc(F)c(F)c([C@@]4(CF)N=C(N)S[C@]5(CO)C[C@@H]54)c3)nccc2c1", "MEASURED_VALUE": 0.00563}
{"SMILES_STRUCTURE": "COC[C@]12C[C@H]1[C@@](C)(c1cc(Nc3ncnc4cc(OC)cnc34)cc(F)c1F)N=C(N)S2", "MEASURED_VALUE": 0.0133}
{"SMILES_STRUCTURE": "C#CCOc1cnc2c(Nc3ccc(F)c([C@@]4(CF)N=C(N)S[C@@]5(CO)C[C@H]54)c3)nccc2c1", "MEASURED_VALUE": 0.0105}
{"SMILES_STRUCTURE": "C#CCOc1cnc(C(=O)Nc2cc(F)c(F)c([C@@]3(CF)N=C(N)S[C@H]4C[C@H]43)c2)cn1", "MEASURED_VALUE": 0.0006}
{"SMILES_STRUCTURE": "COc1cnc(C(=O)Nc2cc(F)c(F)c([C@@]3(CF)N=C(N)S[C@H]4C[C@H]43)c2)cn1", "MEASURED_VALUE": 0.0145}

P = COC[C@]12C[C@H]1[C@@](C)(c1cc(Nc3ncnc4cc(C#N)cnc34)cc(F)c1F)N=C(N)S2
Q = C[C@]1(c2cc(Nc3ncnc4cc(C#N)cnc34)ccc2F)N=C(N)S[C@@H]2[C@H]1C2(F)F
R = COC[C@]12C[C@H]1[C@@](C)(c1cc(Nc3nccc4cc(C#N)cnc34)cc(F)c1F)N=C(N)S2
S = N#Cc1ccc(C(=O)Nc2cc(F)c(F)c([C@@]3(CF)N=C(N)S[C@H]4C[C@H]43)c2)nc1
Rank items: key IC50, increasing. Response format: the labels, sorted as the prompt asks.
R, P, S, Q
(R: 0.00203 µM, P: 0.00631 µM, S: 0.0104 µM, Q: 0.0197 µM)

1 = Cc1cc(Cl)cnc1C(=O)Nc1cc(F)c(F)c([C@@]2(C)N=C(N)S[C@H]3C[C@H]32)c1
2 = C#CCOc1cnc2c(Nc3cc(F)c(F)c([C@@]4(C)N=C(N)S[C@H]5C[C@H]54)c3)nccc2c1
3 = Cc1cc(C#N)cnc1C(=O)Nc1ccc(F)c([C@@]2(CF)N=C(N)S[C@H]3C[C@H]32)c1
4 = NC1=N[C@](CF)(c2cc(Nc3nccc4cc(Cl)cnc34)ccc2F)[C@@H]2C[C@]2(CO)S1
5 = C[C@]1(c2cc(Nc3nccc4cc(Cl)cnc34)cc(F)c2F)N=C(N)S[C@@]2(CO)C[C@H]21
Task field, ranking: reported IC50, descending order. Return the labels ranked in the requested order, please.
2, 3, 1, 4, 5

A = C[C@]1(c2cc(Nc3ncnc4cc(C#N)cnc34)cc(F)c2F)N=C(N)S[C@@]2(CO)C[C@H]21
B = NC1=N[C@](CF)(c2cc(NC(=O)c3ccc(Cl)cn3)ccc2F)[C@H]2C[C@@]2(CO)S1
Which of the two items, A and B , has the greater recorded IC50? Pick one; state its label.
B
(B: 0.00601 µM, A: 0.00399 µM)

a = N#Cc1cnc2c(Nc3ccc(F)c([C@@]4(CF)N=C(N)S[C@@]5(CF)C[C@H]54)c3)ncnc2c1
b = COc1cnc2c(Nc3cc(F)c(F)c([C@@]4(C)N=C(N)S[C@@]5(CO)C[C@H]54)c3)ncnc2c1
c = C#CCOc1cnc(C(=O)Nc2cc(F)c(F)c([C@@]3(C)N=C(N)S[C@H]4C[C@H]43)c2)cn1
d = COC(=O)[C@]12C[C@H]1[C@@](C)(c1cc(NC(=O)c3ccc(Cl)cn3)cnc1F)N=C(N)S2
Sort (4 molecules) by IC50: min first. Dear reader, please state the labels in the requested order.
c, b, d, a
(c: 0.00047 µM, b: 0.00397 µM, d: 0.00659 µM, a: 0.0118 µM)

----------
molecular target: Recombinant Cat D (Homo sapiens (Human), UniProt P07339); assay: In vitro enzymatic Cathepsin D (Cat D) FRET assay; assay type: biochemical; details: read-out: IC50 IP (μM) CatD
Sequence (P07339 65-412): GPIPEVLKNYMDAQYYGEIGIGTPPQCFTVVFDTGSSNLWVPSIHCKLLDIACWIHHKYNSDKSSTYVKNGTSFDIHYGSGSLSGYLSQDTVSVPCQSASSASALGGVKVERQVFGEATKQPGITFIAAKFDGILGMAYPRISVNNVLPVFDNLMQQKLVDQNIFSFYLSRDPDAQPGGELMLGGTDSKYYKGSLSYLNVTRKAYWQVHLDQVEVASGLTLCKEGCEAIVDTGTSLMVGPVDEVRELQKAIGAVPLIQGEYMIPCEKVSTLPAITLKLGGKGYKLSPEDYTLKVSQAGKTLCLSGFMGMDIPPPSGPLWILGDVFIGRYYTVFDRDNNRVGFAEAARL
OBSERVED_PROPERTY: IC50 (µM)

Please review the following examples before continuing.
{"MOLECULE": "C#CCOc1cnc2c(Nc3cc(F)c(F)c([C@@]4(C)N=C(N)S[C@@]5(C(F)F)C[C@@H]45)c3)ncnc2c1 [Example 945]", "TESTED_TARGET": "Recombinant Cat D (Homo sapiens (Human), UniProt P07339)", "OBSERVED_PROPERTY": "IC50", "MEASURED_VALUE": 381}
{"MOLECULE": "Cc1noc(COc2cnc3c(Nc4ccc(F)c([C@@]5(CF)N=C(N)S[C@@]6(CF)C[C@H]65)c4)nccc3n2)n1 [Example 880]", "TESTED_TARGET": "Recombinant Cat D (Homo sapiens (Human), UniProt P07339)", "OBSERVED_PROPERTY": "IC50", "MEASURED_VALUE": 1110}
{"MOLECULE": "CC#CCOc1cnc2c(Nc3cc(F)c(F)c([C@@]4(C)N=C(N)S[C@@]5(COC)C[C@H]54)c3)nccc2n1 [Example 869]", "TESTED_TARGET": "Recombinant Cat D (Homo sapiens (Human), UniProt P07339)", "OBSERVED_PROPERTY": "IC50", "MEASURED_VALUE": 127}
{"MOLECULE": "C[C@]1(c2cc(Nc3nccc4nc(OCc5ncco5)cnc34)ccc2F)N=C(N)S[C@@]2(C(=O)NC3CC3)C[C@H]21 [Example 796]", "TESTED_TARGET": "Recombinant Cat D (Homo sapiens (Human), UniProt P07339)", "OBSERVED_PROPERTY": "IC50", "MEASURED_VALUE": 543}

I = C#CCOc1cnc2c(Nc3cnc(F)c([C@@]4(C)N=C(N)S[C@@]5([C@@H](O)C(F)(F)F)C[C@H]54)c3)ncnc2c1 [Example 666]
II = NC1=N[C@](CF)(c2cc(NC(=O)c3ccc(Cl)cn3)ccc2F)[C@@H]2C[C@]2(Cn2ccnn2)S1 [Example 722]
Could you tell me which of I and II has the lower IC50 reading? Your choice should be expressed through its label.
II

1 = C[C@]1(c2cc(NC(=O)c3cnc(OCC(F)(F)F)cn3)cc(F)c2F)N=C(N)S[C@@]2(CF)C[C@H]21 [Example 814]
2 = CON(C)C(=O)[C@]12C[C@H]1[C@@](C)(c1cc(NC(=O)c3cnc(OCC(F)(F)F)cn3)ccc1F)N=C(N)S2 [Example 984]
3 = C#CCOc1cnc(C(=O)Nc2ccc(F)c([C@@]3(C)N=C(N)S[C@@]4(C(=O)N5CCCC5)C[C@H]43)c2)cn1 [Example 633]
Sort the 3 molecules by IC50; largest first, smallest last. Give the labels in the order specified.
2, 1, 3
(2: 1110 µM, 1: 595 µM, 3: 67.5 µM)

I = C#C[C@H](C)Oc1cnc(C(=O)Nc2cc(F)c(F)c([C@@]3(C)N=C(N)S[C@@]4(C#N)C[C@H]43)c2)cn1 [Example 1011]
II = CN(C)C(=O)[C@]12C[C@H]1[C@@](C)(c1cc(NC(=O)c3cnc(OCC(F)(F)C(F)F)cn3)cc(F)c1F)N=C(N)S2 [Example 922]
Between I and II , whose recorded IC50 is greater? Write down the label of the entry you select.
II
